Target: sulfenic acid form of C165S AhpC (Salmonella typhimurium, UniProt P0A251, C166S)
Construct: made in house
Sequence (P0A251 whole entry C166S): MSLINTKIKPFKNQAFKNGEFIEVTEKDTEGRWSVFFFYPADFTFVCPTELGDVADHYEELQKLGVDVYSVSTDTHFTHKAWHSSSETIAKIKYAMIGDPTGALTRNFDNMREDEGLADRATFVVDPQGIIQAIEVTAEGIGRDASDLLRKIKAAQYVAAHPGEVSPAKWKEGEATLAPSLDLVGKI
Assay: Labeling of sulfenic acid-containing C165S AhpC, adducts analysed by ESI-MS
Type: biochemical
Conditions: ESI-MS, 5 mM reagent, 60 min, room temperature
Procedure: Reactivity of new compounds toward cysteine sulfenic acids in proteins. […] Generation of pure, sulfenic acid-containing C165S AhpC. […] The protein solution (160 nmol in 0.60 mL) was made anaerobic by repeated cycles of argon and vacuum over about 30 min, then rapidly titrated with 11 mM hydrogen peroxide to give a maximal absorbance signal at ˜367 nm for the sulfenate anion as described previously (3, 4). […]
Catalogue of Observed increase in mass of product compared with R—SH form values
Form entry: value (amu) — number only.

// map COc1ccc2cc(NC(=O)OCCCC3CCC(=O)CC3=O)c(=O)oc2c1 (stereo not shown) to recorded Observed increase in mass of product compared with R—SH form (system: sulfenic acid form of C165S AhpC (Salmonella typhimurium, UniProt P0A251, C166S))
384.5

// map CNc1ccccc1C(=O)OCCCC1CCC(=O)CC1=O (stereo not shown) to recorded Observed increase in mass of product compared with R—SH form (system: sulfenic acid form of C165S AhpC (Salmonella typhimurium, UniProt P0A251, C166S))
300.7

// map O=C1CCCC(=O)C1 to recorded Observed increase in mass of product compared with R—SH form (system: sulfenic acid form of C165S AhpC (Salmonella typhimurium, UniProt P0A251, C166S))
109.2

// map CC1(C)CC(=O)CC(=O)C1 to recorded Observed increase in mass of product compared with R—SH form (system: sulfenic acid form of C165S AhpC (Salmonella typhimurium, UniProt P0A251, C166S))
137.3

Data provenance is patent US8841132B2.
